// data source = the supplement of paper PMC8149375

System: 786-O
Test: GI50 of drug in presence of dasatinib; higher = less potent
Conditions: treatment: drug + dasatinib (fixed dose, not stated); 5 days
PROPERTY_NAME: GI50 of drug (nM)

• NC1(Cc2ccc(Cl)cc2)CCN(c2ncnc3[nH]ccc23)CC1 + Cc1nc(Nc2ncc(C(=O)Nc3c(C)cccc3Cl)s2)cc(N2CCN(CCO)CC2)n1 [dasatinib] = 353
• COc1cc(Nc2ncc(F)c(Nc3ccc4c(n3)N(COP(=O)(O)O)C(=O)C(C)(C)O4)n2)cc(OC)c1OC [R788 (Fostamatinib)] + Cc1nc(Nc2ncc(C(=O)Nc3c(C)cccc3Cl)s2)cc(N2CCN(CCO)CC2)n1 [dasatinib] = 366
